Provenance of the data: ChEMBL document CHEMBL4311997

# System Name: Histone deacetylase 8 (Homo sapiens, UniProt Q9BY41)
# Sequence (Q9BY41 whole entry): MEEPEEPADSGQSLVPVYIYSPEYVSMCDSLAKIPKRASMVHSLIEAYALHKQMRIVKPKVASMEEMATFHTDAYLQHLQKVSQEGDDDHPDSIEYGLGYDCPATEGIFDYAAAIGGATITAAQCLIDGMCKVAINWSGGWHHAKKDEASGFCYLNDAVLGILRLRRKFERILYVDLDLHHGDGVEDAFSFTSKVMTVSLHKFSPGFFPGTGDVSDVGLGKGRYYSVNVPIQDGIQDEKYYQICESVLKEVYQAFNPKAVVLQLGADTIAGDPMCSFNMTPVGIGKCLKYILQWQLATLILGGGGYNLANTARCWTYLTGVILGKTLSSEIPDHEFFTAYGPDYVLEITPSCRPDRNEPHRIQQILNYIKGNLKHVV
Quantity Kind: IC50 (µM)
Value expressed in µM; do not type the unit.

Req: Return the recorded IC50 value; entry: "COc1ccc(CN2CCC(Nc3nc(Nc4ccc(NC(=O)CCCCCCC(=O)NO)cc4)nc4cc(OC)c(OC)cc34)CC2)cc1"
Resp: 1.26
